Run Description: Pharmacokinetics, repeat oral dose
Assay type: in vivo
Setup Conditions: both sexes, human, plasma; Day 14; repeat oral dosing 1, 2, 5, 10 mg (QD Days 1 and 14, BID Days 2 through 13); range over doses
Measurement Kind: Cmax at 14 days

C[C@H](Nc1ncnc2[nH]cnc12)c1cc2cccc(Cl)c2c(=O)n1-c1ccccc1 [Form C]    10 to 1000 ng/mL

----------
compounds and their reported DVS
Run Description: Dynamic vapor sorption (DVS) / moisture sorption analysis
Type: physicochemical
Setup Conditions: @ 90% RH
Measurement Kind: DVS (% @ 90% RH)

C[C@H](Nc1ncnc2[nH]cnc12)c1cc2cccc(Cl)c2c(=O)n1-c1ccccc1 [Form E]    2.2
C[C@H](Nc1ncnc2[nH]cnc12)c1cc2cccc(Cl)c2c(=O)n1-c1ccccc1 [Form D]    1.7
C[C@H](Nc1ncnc2[nH]cnc12)c1cc2cccc(Cl)c2c(=O)n1-c1ccccc1 [Form A]    2.6
C[C@H](Nc1ncnc2[nH]cnc12)c1cc2cccc(Cl)c2c(=O)n1-c1ccccc1 [Form B]    1.7
C[C@H](Nc1ncnc2[nH]cnc12)c1cc2cccc(Cl)c2c(=O)n1-c1ccccc1 [Form C]    4.9

----------
Run Description: Salt screen: solubility in water
Format: physicochemical
Structures can show the parent of a compound that is named as a salt.
molecules and their reported Solubility in water
Measurement Kind: Solubility in water (µg/mL)

C[C@H](Nc1ncnc2[nH]cnc12)c1cc2cccc(Cl)c2c(=O)n1-c1ccccc1 [EDSA]    9400
C[C@H](Nc1ncnc2[nH]cnc12)c1cc2cccc(Cl)c2c(=O)n1-c1ccccc1 [NDSA]    300
C[C@H](Nc1ncnc2[nH]cnc12)c1cc2cccc(Cl)c2c(=O)n1-c1ccccc1 [NSA]    50
C[C@H](Nc1ncnc2[nH]cnc12)c1cc2cccc(Cl)c2c(=O)n1-c1ccccc1 [Bis HCL]    11800

----------
Run Description: Dynamic vapor sorption (DVS) / moisture sorption analysis
Type: physicochemical
Setup Conditions: DVS, about 25° C., 90% RH
Measurement Kind: moisture uptake at 90% RH

C[C@H](Nc1ncnc2[nH]cnc12)c1cc2cccc(Cl)c2c(=O)n1-c1ccccc1 [Form C]    4.9%
C[C@H](Nc1ncnc2[nH]cnc12)c1cc2cccc(Cl)c2c(=O)n1-c1ccccc1 [Form E]    2.2 wt %
C[C@H](Nc1ncnc2[nH]cnc12)c1cc2cccc(Cl)c2c(=O)n1-c1ccccc1 [Form B]    1.7 wt %
C[C@H](Nc1ncnc2[nH]cnc12)c1cc2cccc(Cl)c2c(=O)n1-c1ccccc1 [Form D]    1.7 wt %
C[C@H](Nc1ncnc2[nH]cnc12)c1cc2cccc(Cl)c2c(=O)n1-c1ccccc1 [Form A]    2.6 wt %

----------
Run Description: Grinding stability (mortar and pestle)
Assay type: physicochemical
Setup Conditions: by hand, 2 and 5 min, XRPD
Measurement Kind: Grinding (mortar & pestle)

C[C@H](Nc1ncnc2[nH]cnc12)c1cc2cccc(Cl)c2c(=O)n1-c1ccccc1 [Form D]    amorphous
C[C@H](Nc1ncnc2[nH]cnc12)c1cc2cccc(Cl)c2c(=O)n1-c1ccccc1 [Form C]    remained Form
C[C@H](Nc1ncnc2[nH]cnc12)c1cc2cccc(Cl)c2c(=O)n1-c1ccccc1 [Form E]    amorphous
C[C@H](Nc1ncnc2[nH]cnc12)c1cc2cccc(Cl)c2c(=O)n1-c1ccccc1 [Form A]    remained Form

----------
compounds and their reported moisture uptake at 60% RH
Run Description: Dynamic vapor sorption (DVS) / moisture sorption analysis
Type: physicochemical
Setup Conditions: DVS, about 25° C., 60% RH
Measurement Kind: moisture uptake at 60% RH (wt %)

C[C@H](Nc1ncnc2[nH]cnc12)c1cc2cccc(Cl)c2c(=O)n1-c1ccccc1 [Form E]    1.9
C[C@H](Nc1ncnc2[nH]cnc12)c1cc2cccc(Cl)c2c(=O)n1-c1ccccc1 [Form B]    1.0
C[C@H](Nc1ncnc2[nH]cnc12)c1cc2cccc(Cl)c2c(=O)n1-c1ccccc1 [Form A]    0.7
C[C@H](Nc1ncnc2[nH]cnc12)c1cc2cccc(Cl)c2c(=O)n1-c1ccccc1 [Form D]    0.4

----------
Run Description: Dynamic vapor sorption (DVS) / moisture sorption analysis
Assay type: physicochemical
Setup Conditions: DVS
Measurement Kind: hygroscopicity

C[C@H](Nc1ncnc2[nH]cnc12)c1cc2cccc(Cl)c2c(=O)n1-c1ccccc1 [Form B]    slightly hygroscopic
C[C@H](Nc1ncnc2[nH]cnc12)c1cc2cccc(Cl)c2c(=O)n1-c1ccccc1 [Form E]    slightly hygroscopic
C[C@H](Nc1ncnc2[nH]cnc12)c1cc2cccc(Cl)c2c(=O)n1-c1ccccc1 [Form A]    slightly hygroscopic
C[C@H](Nc1ncnc2[nH]cnc12)c1cc2cccc(Cl)c2c(=O)n1-c1ccccc1 [Form D]    slightly hygroscopic

----------
Run Description: Pharmacokinetics, single oral dose
Assay type: in vivo
Setup Conditions: both sexes, human, plasma; healthy adult subjects, fasting, single oral dose 1, 2, 5, 10, 20, 30 mg; range over doses
Measurement Kind: Cmax

C[C@H](Nc1ncnc2[nH]cnc12)c1cc2cccc(Cl)c2c(=O)n1-c1ccccc1 [Form C]    10 to 1500 ng/mL

----------
compounds and their reported DVS
Run Description: Dynamic vapor sorption (DVS) / moisture sorption analysis
Assay type: physicochemical
Setup Conditions: @ 60% RH
Measurement Kind: DVS (% @ 60% RH)

C[C@H](Nc1ncnc2[nH]cnc12)c1cc2cccc(Cl)c2c(=O)n1-c1ccccc1 [Form C]    4.2
C[C@H](Nc1ncnc2[nH]cnc12)c1cc2cccc(Cl)c2c(=O)n1-c1ccccc1 [Form B]    1.0
C[C@H](Nc1ncnc2[nH]cnc12)c1cc2cccc(Cl)c2c(=O)n1-c1ccccc1 [Form E]    1.9
C[C@H](Nc1ncnc2[nH]cnc12)c1cc2cccc(Cl)c2c(=O)n1-c1ccccc1 [Form D]    0.4
C[C@H](Nc1ncnc2[nH]cnc12)c1cc2cccc(Cl)c2c(=O)n1-c1ccccc1 [Form A]    0.7
